# ASSAY_PROTOCOL: small-molecule microarray binders of probe aLefty2, primary screen, biochemical, biotinylated probe, 635/667 nm fluorescence (AID 1094);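 also: score merges spot fluorescence near 667 nm with spot signal-to-noise ratio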
# REPORTED_CONDITIONS: higher = more signal
Classify as follows. Reported composite z-score greater than or equal to 0.06: Fulfilled. Reported composite z-score below: Not fulfilled.

MOLECULE | CLASSIFICATION
O=C(NCC(F)(F)F)[C@@H]1c2ccccc2C(=O)N(CC23CC4CC(CC(C4)C2)C3)[C@H]1c1ccc(CO)cc1 | Not fulfilled
CC(C)C[C@H]1NC(=O)[C@@H](C)NC(=O)[C@@]23C(=O)N[C@@H](Cc4ccccc4)C2[C@H](C)[C@@]2(C)O[C@H]2C3/C=C/C/C=C\CNC1=O (stereo partly drawn) | Not fulfilled
C=CCNC(=O)[C@@H]1[C@H]2C(=O)O[C@H](c3ccccc3)[C@H](c3ccccc3)N2[C@H](c2ccc(O)cc2)[C@@]12C(=O)Nc1ccc(C#CC3(O)CCCCCC3)cc12 | Not fulfilled
COC(=O)[C@@]1(Cc2ccc(OC)cc2)[C@@H]2[C@@H](CC(=O)[C@H]2CC(=O)C(=O)N2CCCC2)CN1C(=O)c1ccccc1 | Fulfilled
CCCCC(=C=CC[C@@H](O)c1ccc(OCCO)cc1)C[C@@H](O)c1ccccn1 | Not fulfilled
CN(C)C(=O)[C@@]1(CCS(=O)(=O)c2ccccc2)N=C(c2ccc(OCCCO)cc2)O[C@H]1c1ccccc1N=[N+]=[N-] | Not fulfilled
CCOC(=O)C1=C[C@@H](C(C)(C)C)N(S(=O)(=O)c2ccc(C)cc2)[C@H]1c1ccccc1Cl | Fulfilled
COC(=O)[C@@]1(Cc2ccc(F)cc2)[C@H]2c3cc(C(=O)N(C)C)n(CCO)c3C[C@H]2CN1C(=O)c1ccccc1 | Not fulfilled
C=CCOC(=O)[C@H]1[C@@H]2C(=O)O[C@@H](c3ccccc3)[C@@H](c3ccccc3)N2[C@@H](c2ccc(OCCOC(=O)[C@@H]3C[C@@H]4C(=O)N[C@@H](CC(C)C)C(=O)N4[C@@H]3c3ccc(O)cc3)cc2)[C@]12C(=O)Nc1ccc(I)cc12 | Not fulfilled
Cc1ccc(S[C@]2(C(=O)NC3CC3)CC(=O)N(Cc3cc(C(F)(F)F)cc(C(F)(F)F)c3)[C@@H]2c2ccc(CO)cc2I)cc1 | Not fulfilled
COCCOC(=O)N1C(=O)[C@@]2(c3cc(C#CC4=CCCCC4)ccc31)[C@H](c1ccc(OCCO)cc1)N1[C@H](c3ccccc3)[C@H](c3ccccc3)OC(=O)[C@H]1[C@@H]2C(=O)N1CCCCCCC1 | Fulfilled
Cc1ccc(S[C@]2(C(=O)NCCN3CCOCC3)CC(=O)N(C3CCCCC3)[C@@H]2c2ccc(CO)cc2I)cc1 | Not fulfilled
COc1ccccc1CN1C(=O)c2ccccc2[C@](Cc2ccccc2I)(C(=O)NCCCN(C)C)[C@@H]1c1ccc(CO)cc1 | Not fulfilled

* * *

composite z-score for assorted compounds
# ASSAY_SYSTEM: Neurogenic locus notch homolog protein 3 (Homo sapiens) (UniProt Q9UM47)
# Sequence (Q9UM47 whole entry, looked up): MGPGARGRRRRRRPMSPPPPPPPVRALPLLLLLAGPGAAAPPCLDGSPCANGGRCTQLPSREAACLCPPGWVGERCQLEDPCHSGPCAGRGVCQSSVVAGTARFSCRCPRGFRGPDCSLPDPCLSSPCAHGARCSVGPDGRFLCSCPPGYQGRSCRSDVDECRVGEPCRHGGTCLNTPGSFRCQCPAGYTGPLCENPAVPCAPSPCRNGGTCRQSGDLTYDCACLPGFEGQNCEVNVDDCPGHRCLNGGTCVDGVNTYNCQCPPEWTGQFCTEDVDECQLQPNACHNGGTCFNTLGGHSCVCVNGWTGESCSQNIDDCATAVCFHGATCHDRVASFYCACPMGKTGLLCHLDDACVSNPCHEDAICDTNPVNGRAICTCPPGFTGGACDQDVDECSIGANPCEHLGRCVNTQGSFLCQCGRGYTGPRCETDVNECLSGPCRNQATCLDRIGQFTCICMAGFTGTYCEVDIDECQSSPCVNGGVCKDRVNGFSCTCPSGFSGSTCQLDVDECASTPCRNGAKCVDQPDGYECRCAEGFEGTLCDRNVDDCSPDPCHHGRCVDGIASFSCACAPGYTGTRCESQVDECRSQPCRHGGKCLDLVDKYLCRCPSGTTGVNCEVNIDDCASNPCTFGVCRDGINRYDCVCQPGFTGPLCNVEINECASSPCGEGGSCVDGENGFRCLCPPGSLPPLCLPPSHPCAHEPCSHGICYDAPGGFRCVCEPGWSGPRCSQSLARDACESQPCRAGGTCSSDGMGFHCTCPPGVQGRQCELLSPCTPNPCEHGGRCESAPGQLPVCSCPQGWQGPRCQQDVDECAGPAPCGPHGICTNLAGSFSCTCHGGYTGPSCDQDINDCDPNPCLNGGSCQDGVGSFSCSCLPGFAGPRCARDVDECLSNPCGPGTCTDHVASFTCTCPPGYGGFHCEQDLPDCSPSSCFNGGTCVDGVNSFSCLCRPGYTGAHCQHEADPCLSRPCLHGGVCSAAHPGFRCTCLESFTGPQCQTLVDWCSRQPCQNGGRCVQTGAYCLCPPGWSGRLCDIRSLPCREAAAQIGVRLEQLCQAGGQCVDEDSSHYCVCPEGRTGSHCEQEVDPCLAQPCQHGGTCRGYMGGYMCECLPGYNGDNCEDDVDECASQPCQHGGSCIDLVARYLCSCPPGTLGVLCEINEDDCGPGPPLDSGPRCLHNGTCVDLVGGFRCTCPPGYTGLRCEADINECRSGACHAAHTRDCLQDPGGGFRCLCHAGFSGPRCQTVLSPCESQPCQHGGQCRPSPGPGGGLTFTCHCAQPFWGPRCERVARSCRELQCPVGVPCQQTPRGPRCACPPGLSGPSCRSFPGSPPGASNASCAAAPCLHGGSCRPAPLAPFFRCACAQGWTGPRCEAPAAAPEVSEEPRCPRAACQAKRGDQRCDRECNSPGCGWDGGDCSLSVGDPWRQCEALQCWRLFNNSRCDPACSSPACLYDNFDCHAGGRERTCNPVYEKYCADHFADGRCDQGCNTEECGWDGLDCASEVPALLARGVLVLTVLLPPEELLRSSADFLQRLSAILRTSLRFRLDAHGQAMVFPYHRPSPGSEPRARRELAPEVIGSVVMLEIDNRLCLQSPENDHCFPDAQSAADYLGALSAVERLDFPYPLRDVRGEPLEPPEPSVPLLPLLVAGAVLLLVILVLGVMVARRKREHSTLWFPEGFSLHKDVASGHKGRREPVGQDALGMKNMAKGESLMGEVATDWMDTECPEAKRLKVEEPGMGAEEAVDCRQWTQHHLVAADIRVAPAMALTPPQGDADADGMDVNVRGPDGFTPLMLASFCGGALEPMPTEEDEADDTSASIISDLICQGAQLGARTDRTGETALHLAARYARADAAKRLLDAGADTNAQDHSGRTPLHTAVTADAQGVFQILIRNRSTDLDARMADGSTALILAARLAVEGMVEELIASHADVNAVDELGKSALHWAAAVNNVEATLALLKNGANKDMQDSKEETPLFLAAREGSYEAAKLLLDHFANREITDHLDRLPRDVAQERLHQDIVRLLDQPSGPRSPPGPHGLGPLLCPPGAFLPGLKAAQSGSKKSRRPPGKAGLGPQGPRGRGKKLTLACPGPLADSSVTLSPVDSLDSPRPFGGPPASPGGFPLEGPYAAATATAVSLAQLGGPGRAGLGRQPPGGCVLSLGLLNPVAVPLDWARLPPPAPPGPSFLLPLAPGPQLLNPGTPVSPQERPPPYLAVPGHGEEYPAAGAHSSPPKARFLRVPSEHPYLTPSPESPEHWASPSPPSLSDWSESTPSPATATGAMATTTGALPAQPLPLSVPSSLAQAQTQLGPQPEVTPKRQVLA
# ASSAY_PROTOCOL: NOTCH3 binders on small-molecule microarray, primary screen, biochemical, 635/667 nm fluorescence (AID 1096)
# REPORTED_CONDITIONS: NOTCH3 binding, 635 nm fluorescence, higher = more signal

STRUCTURE | composite z-score
COCCOC(=O)N1C(=O)[C@@]2(c3cc(C#Cc4ccc(OC)cc4)ccc31)[C@H](C(=O)N1CCCCCCC1)[C@H]1C(=O)O[C@H](c3ccccc3)[C@H](c3ccccc3)N1[C@@H]2c1ccccc1OCCO | 1.12
COC(=O)c1ccc([C@H](NC(=O)c2ccccc2)[C@]2(C)C[C@H]2C2CCCCC2)cc1 | 1.05
COCCOC(=O)N1C(=O)[C@@]2(c3ccccc31)[C@H](c1ccc(OCCO)cc1)N1[C@H](c3ccccc3)[C@H](c3ccccc3)OC(=O)[C@H]1[C@@H]2C(=O)N1CCN(c2ncccn2)CC1 | 1.05

* * *

# Test system: glycogen synthase kinase-3 (GSK3A per assay name; protocol says GSK3B)
# ASSAY_PROTOCOL: GSK3 binders on small-molecule microarrays, primary screen, biochemical, small-molecule microarray, 635 nm fluorescence, GSK3A (AID 1103); also: the record names both GSK3A and GSK3B
# REPORTED_CONDITIONS: small-molecule microarray binding, fluorescence 635 nm; higher = more signal
Listing: composite z-score of selected compounds

COMPOUND | composite z-score
CN(C)CCCCNC(=O)[C@H]1C[C@H]2C(=O)N[C@@H](Cc3ccccc3)C(=O)N2[C@H]1c1cccc(OCCO)c1 | -1.51
O=C1C2C=CC(C(O)C(c3ccccc3)c3ccccc3)N(Nc3ccccc3)C2C(=O)N1c1ccccc1 (configuration not stated) | 1.32
CC(C)(C)N1CC=CC23O[C@@H]4/C=C\CCCOC(=O)C4[C@H]2C(=O)N(CCCCCCO)[C@@H]3C1=O (some centres not stated) | -0.749
CCN(CC)c1ccc(N2CC=CC34O[C@@H]5C=CCOC(=O)[C@@H]5[C@H]3C(=O)N(CCCO)[C@@H]4C2=O)cc1 (some centres not stated) | -1.11
COc1cccc(OC)c1C(=O)O[C@H]1[C@@H]2OC(=O)[C@H](Cc3cccc(Br)c3)C/C=C/C[C@@H](Cc3cccc(Br)c3)C(=O)O[C@H]2[C@@H](OC)O[C@@H]1CO | 0.277
C[N+](C)(C)CCCC[C@@H]1NC(=O)[C@H]2C[C@@H](C(=O)NCCCCCNC(=O)CS)[C@@H](c3ccc(O)cc3)N2C1=O | 0.57
CCOC(=O)C1=CC[C@@H](c2ccccc2)N(S(=O)(=O)C[Si](C)(C)C)[C@H]1c1ccccc1 | 0.651

* * *

# ASSAY_PROTOCOL: MM1S myeloma cell viability, profiling panel, resazurin fluorescence, basal, 24 h, PK04 Diversity Set (AID 1174);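 also: MM1S multiple myeloma cell line; test concentration not given here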
# REPORTED_CONDITIONS: higher = more signal, called active from +8 up or from −8 down
Param threshold (-0.07) applies to z-score; output Fulfilled when value >= threshold, Not fulfilled when value < threshold.

COMPOUND | CLASSIFICATION
CN(C)CCCC[C@@H]1NC(=O)[C@@H]2C[C@H](C(=O)NCCCCCCNC(=O)CS)[C@H](c3cccc(OCCO)c3)N2C1=O | Not fulfilled
COCCOC(=O)N1C(=O)[C@@]2(c3cc(C#CCNC(N)=O)ccc31)[C@H](C(=O)NC[C@H](O)c1ccccc1)[C@H]1C(=O)O[C@H](c3ccccc3)[C@H](c3ccccc3)N1[C@@H]2c1ccc(OCCO)cc1 | Not fulfilled
CN(C)CCCCNC(=O)[C@H]1C[C@H]2C(=O)NCC(=O)N2[C@H]1c1cccc(OCCO)c1 | Fulfilled
CC(C)C(=C=CC[C@@H](O)c1cccc(OCCO)c1)CCO | Fulfilled
CC(=O)n1cc(C(O)C2C=CC3C(=O)N(c4ccccc4)C(=O)C3N2Nc2ccccc2F)c2ccccc21 (configuration not stated) | Not fulfilled
[N-]=[N+]=NCc1ccccc1C[C@]1(C(=O)N2CCOCC2)N=C(c2ccc(OCCCO)cc2)O[C@H]1c1ccccc1CN=[N+]=[N-] | Not fulfilled

* * *

# ASSAY_PROTOCOL: A549 cell viability effects, profiling panel, calcein-AM fluorescence, 48 h, basal (AID 1162); also: test concentration not given here
# REPORTED_CONDITIONS: higher = more signal
Decision: z-score >= 0.1 yields t, all other cases yield f.

MOLECULE | CLASSIFICATION
CCOC(=O)C1=C(C(=O)OCC)N(S(=O)(=O)CC[Si](C)(C)C)[C@H](c2ccccc2)CC1 | f
CCCCC(=C=CC[C@@H](O)c1ccc(OCCO)cc1)C[C@@H](O)c1ccccn1 | f
NCCCC[C@@H]1NC(=O)[C@H]2C[C@@H](C(=O)NCc3ccc(F)cc3)[C@@H](c3cccc(OCCO)c3)N2C1=O | t
COc1cc(OC)c(C(O)C2C=CC3C(=O)N(c4ccccc4)C(=O)C3N2Nc2ccccc2F)cc1Br (stereo not drawn) | f
COCCCNC(=O)[C@@H]1c2ccccc2C(=O)N(C2CCCCC2)[C@H]1c1ccc(CO)cc1 | t
N[C@@H](Cc1ccccc1)Cn1cc(C2(O)CCCCC2)nn1 | f
CC(C)N1CC=CC23O[C@@H]4C=CCCOC(=O)C4[C@H]2C(=O)N(CCCCCO)[C@@H]3C1=O (stereo partly drawn) | f
CN(C)C(=O)[C@@]1(CCS(=O)(=O)c2ccccc2)N=C(c2ccc(OCCCO)cc2)O[C@H]1c1ccccc1N=[N+]=[N-] | t

* * *

# ASSAY_PROTOCOL: CREB reporter modulators without forskolin, primary screen, cell-based, PC12, CRE-LacZ reporter, unstimulated (AID 1145)
# REPORTED_CONDITIONS: no forskolin, luminescence, 4.5 h, higher = more signal, called active from +8 up or from −8 down
// label = 1 if z-score is not less than 0.3, otherwise 0

MOLECULE | CLASSIFICATION
C[C@]1(C(=O)NCC(F)(F)F)c2ccccc2C(=O)N(Cc2ccc(OC(F)(F)F)cc2)[C@H]1c1ccc(CO)cc1 | 1
Cc1ccccc1C(O)C1C=CC2C(=O)N(c3ccccc3)C(=O)C2N1Nc1ccccc1F (centres undefined) | 0
CCc1cccc(NC(=O)O[C@H]2[C@H](OC(=O)Nc3ccc4c(c3)OCO4)[C@H](OC(=O)Nc3ccc4c(c3)OCO4)[C@@H](OC)O[C@@H]2CO)c1 | 0
COC(=O)[C@@]1(Cc2ccc(F)cc2)[C@H]2c3cc(C(=O)N4CCCC4)n(CCO)c3C[C@H]2CN1C(=O)c1ccccc1 | 0
C=CCC(OC(C)=O)[C@@H]1[C@@H](N(Cc2ccc(-c3cccc(C(F)(F)F)c3)o2)C(=O)Cc2ccc(F)cc2)c2cc(OCCCO)ccc2N1C(=O)c1ccc2ccccc2c1 (some centres undefined) | 0
COC(=O)[C@@]1(CCS(=O)(=O)c2ccccc2)N=C(c2ccc(OCCCO)cc2)O[C@H]1c1ccccc1N=[N+]=[N-] | 1
CC(C)CNC(=O)[C@@H]1c2ccccc2C(=O)N(CC23CC4CC(CC(C4)C2)C3)[C@H]1c1ccc(CO)cc1 | 0
C[C@H]1NC(=O)C([C@@H](C)OCc2ccccc2)NC(=O)[C@@]23C(=O)N[C@@H](Cc4ccccc4)C2[C@H](C)[C@@]2(C)O[C@H]2C3/C=C/C/C=C\CNC1=O (some centres undefined) | 1
[N-]=[N+]=NCc1ccccc1C[C@@]1(C(=O)O)N=C(c2ccc(OCCCO)cc2)O[C@@H]1c1ccccc1CN=[N+]=[N-] | 0
COCCCNC(=O)[C@@H]1c2ccccc2C(=O)N(C2CCCCC2)[C@H]1c1ccc(CO)cc1 | 0
C/C=C/CN(C(=O)C#Cc1ccccc1)[C@H](CO[Si](C)(C)C(C)(C)C)c1ccccc1 | 1
COC(=O)C(CC#Cc1ccc2c(c1)[C@]1(C(=O)N2)[C@H](c2ccc(O)cc2)N2[C@H](c3ccccc3)[C@H](c3ccccc3)OC(=O)[C@H]2[C@@H]1C(=O)N1CCc2cc(OC)c(OC)cc2C1)C(=O)OC | 1
CC(C)C(=C=CC[C@@H](O)c1ccc(OCCO)cc1)CCO | 0
COCC1=C([C@H](O)CCc2ccccc2)[C@H](CO)n2c(=O)n(-c3ccccc3)c(=O)n2C1 | 0
NC(=O)N1C(=O)C2C(C1=O)C1C=C(CCCO)C2C(c2ccc(CN3CCCC3)cc2)N1Cc1cccc(OC(F)(F)F)c1 (centres undefined) | 1
COC(=O)c1ccc([C@H](NC(=O)c2ccccc2)[C@]2(C)C[C@H]2C2CCCCC2)cc1 | 1
COc1ccc(NC(=O)O[C@H]2[C@H](OC(=O)Nc3ccc4c(c3)OCO4)[C@H](OC(=O)Nc3ccc4c(c3)OCO4)[C@@H](OC)O[C@@H]2CO)cc1 | 1
[N-]=[N+]=NCc1ccccc1[C@H]1OC(c2ccc(OCCCO)cc2)=N[C@@]1(Cc1ccccc1)C(=O)N1CCOCC1 | 1
CC(=O)NCCCC[C@@H]1NC(=O)[C@@H]2C[C@H](C(=O)NCCCCCC[N+](C)(C)C)[C@H](c3ccc(O)cc3)N2C1=O | 0
C=CCC(OC(C)=O)[C@@H]1[C@@H](N(Cc2ccc(-c3ccccc3)cc2)C(=O)c2ccc(-c3ccccc3)cc2)c2cc(OCCCO)ccc2N1C(=O)c1ccc2ccccc2n1 (some centres undefined) | 1
C[N+](C)(C)CCCCCCNC(=O)[C@@H]1C[C@@H]2C(=O)N[C@@H](Cc3ccccc3)C(=O)N2[C@@H]1c1ccc(O)cc1 | 0
COc1ccc([Si](C)(C)[C@H]2[C@H](CCO)O[C@@]3(C(=O)N(Cc4ccc(N5CCOC5=O)cc4)c4ccccc43)[C@@H]2C)cc1 | 1
O=C1C2C=CC(C(O)c3cccc(O)c3)N(Nc3ccccc3F)C2C(=O)N1c1ccccc1 (centres undefined) | 0
COc1ccc(CCNC(=O)[C@@]2(C)c3ccccc3C(=O)N(Cc3cc(C(F)(F)F)cc(C(F)(F)F)c3)[C@H]2c2ccc(CO)cc2)cc1 | 1
C=C(C(=O)CC[C@@H](OC(C)=O)c1cccc(OCCO)c1)C(C)C | 1
C=CCNC(=O)[C@H]1[C@@H]2C(=O)O[C@@H](c3ccccc3)[C@@H](c3ccccc3)N2[C@@H](c2ccc(O)cc2)[C@]12C(=O)Nc1ccc(C#CC3=CCCCC3)cc12 | 0
CCCCCN1CC=CC23O[C@@H]4C=CCOC(=O)[C@@H]4[C@H]2C(=O)N(CCCCCO)[C@@H]3C1=O (some centres undefined) | 0
CN(C)CCCNC(=O)[C@@]1(Cc2ccccc2I)c2ccccc2C(=O)N(Cc2ccccc2)[C@H]1c1ccc(CO)cc1 | 1
COc1cc(OC)c(C(O)C2C=CC3C(=O)N(c4ccccc4)C(=O)C3N2Nc2ccccc2F)cc1Br (centres undefined) | 1
